- Target Entity: GDP-bound KRAS protein (aa 1-169), containing both G12C and C118A amino acid substitutions (Homo sapiens, UniProt P01116, C118A/G12C)
- Sequence (P01116 1-169 isoform P01116-2 G12C/C118A): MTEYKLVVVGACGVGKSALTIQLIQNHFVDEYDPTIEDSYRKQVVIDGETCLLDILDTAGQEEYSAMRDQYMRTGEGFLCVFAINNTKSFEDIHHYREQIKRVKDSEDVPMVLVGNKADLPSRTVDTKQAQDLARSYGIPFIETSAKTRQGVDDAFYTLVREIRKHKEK
- Protocol Text: Coupled nucleotide exchange assay (SOS-mediated, AlphaScreen)
- Assay type: biochemical
- Study Conditions: 20 h compound pre-incubation (values marked * in Table 6); read-out: Avg 20 h Coupled exchange IC50
- Protocol: Coupled Nucleotide Exchange Assay: For all subsequent steps, DTT was added to the reaction buffer at a final concentration of 1 mM. […] The assay plates were then read on a plate reader measuring luminescence signal. Signal intensity of compound-containing wells were normalized to DMSO control, and data were analyzed using a 4-parameter logistic model to calculate IC50 values.
Reported IC50 values for a set of compounds
Please append the unit to your numeric answer.

[[record]]
query_smiles = "C=CC(=O)N1CC2(CCN(c3nc4c(c(N[C@H](CC(=O)NC)CC(C)C)n3)CN(C(C)=O)C4)C2)C1"
obs_value = "472 nM"

[[record]]
query_smiles = "C=CC(=O)N1CC2(CCN(c3nc(N[C@H](CC(=O)NC)CC(C)C)c4ncsc4n3)C2)C1"
obs_value = "395 nM"

[[record]]
query_smiles = "C=CC(=O)N1CC2(CCN(c3nc(N[C@H](CC(=O)NC)CC(C)C)c4ccn(C)c4n3)C2)C1"
obs_value = "918 nM"

[[record]]
query_smiles = "C=CC(=O)N1CC2(CCN(c3nc(N[C@H](CC(=O)NC)CC(C)C)c4occc4n3)C2)C1"
obs_value = "494 nM"

[[record]]
query_smiles = "C=CC(=O)N1CC2(CCN(c3nc4c(c(N[C@H](CC(=O)NC)CC(C)C)n3)COC4)C2)C1"
obs_value = "5850 nM"


So, C=CC(=O)N1CC2(CCN(c3cc4ccccc4c(N[C@H](CC(=O)NC)CC(C)C)n3)C2)C1 ? Its IC50 was 424 nM

----------
- Target Entity: GDP-bound KRAS protein (aa 1-169), containing both G12C and C118A amino acid substitutions (Homo sapiens, UniProt P01116, C118A/G12C)
- Protocol Text: Coupled nucleotide exchange assay (SOS-mediated, AlphaScreen)
- Assay type: biochemical
- Study Conditions: 2 h compound pre-incubation; read-out: Avg 2 h Coupled exchange IC50
Measurement Label: IC50 (nM)
A number alone suffices; assume nM.

Solved entries:
[[record]]
molecule = "C=CC(=O)N1CC2(CCN(c3nc(N[C@H](CC(=O)NC)CC(C)C)c4ccc(C(C)C)cc4n3)C2)C1 [Example 1-20]"
measurement_label = "IC50"
obs_value = 84

[[record]]
molecule = "C=CC(=O)N1CC2(CCN(c3nc4c(c(N[C@H](Cc5c[nH]nn5)CC(C)C)n3)CCC(C)(C)C4)C2)C1 [Example 1-55]"
measurement_label = "IC50"
obs_value = 57

[[record]]
molecule = "C=CC(=O)N1CC2(CCN(c3nc4c(c(N[C@H](CC(=O)NC)CC(C)C)n3)CC(C)CC4)C2)C1 (some centres unmarked) [Example 1-33]"
measurement_label = "IC50"
obs_value = 446

[[record]]
molecule = "C=CC(=O)N1CC2(CCN(c3nc4c(c(N[C@H](Cc5nnc(C)o5)CC(C)C)n3)CCC(C)(C)C4)C2)C1 [Example 1-52]"
measurement_label = "IC50"
obs_value = 39


So, C=CC(=O)N1CC2(CCN(c3nc4c(c(N[C@H](Cc5ncco5)CC(C)C)n3)CCCC4)C2)C1 [Example 1-57] ? Its IC50 was 2100
